All figures here come from ChEMBL document CHEMBL1157043.

The entries below come with measured MIC values attached.
# Tested on: Aspergillus fumigatus
# Assay comment: Antimicrobial activity against Aspergillus fumigatus after 72 to 96 hrs

Solved cases below.
>>> endpoint_value("c1ccc(N2COc3ccc4ccccc4c3C2)cc1")
"> 50 µg/mL"
>>> endpoint_value("Clc1ccc(Cl)c(N2COc3ccc4ccccc4c3C2)c1")
"> 50 µg/mL"

Request: Can you share its MIC? I mean this compound: Clc1ccc(N2COc3ccc4ccccc4c3C2)c(Cl)c1
Response: > 50 µg/mL

Request: Continue with Clc1cc(Cl)c(N2COc3ccc4ccccc4c3C2)c(Cl)c1
Response: > 50 µg/mL

Request: Continue with c1ccc(N2COc3c(ccc4ccccc34)C2)cc1
Response: > 50 µg/mL

Request: Continue with Brc1ccc(N2COc3ccc4ccccc4c3C2)cc1
Response: > 50 µg/mL

Request: Continue with Clc1ccc(N2COc3ccc4ccccc4c3C2)cc1
Response: > 50 µg/mL

Request: Continue with Fc1ccc(N2COc3ccc4ccccc4c3C2)cc1
Response: > 50 µg/mL

Request: Continue with c1ccc(CN2COc3ccc4ccccc4c3C2)cc1
Response: > 50 µg/mL

Request: Continue with c1ccc2c3c(ccc2c1)OCN(C1CCCCC1)C3
Response: > 50 µg/mL

Request: Continue with CC(=O)N1CCN(c2ccc(OCC3COC(Cn4ccnc4)(c4ccc(Cl)cc4Cl)O3)cc2)CC1 (stereo unspecified)
Response: 2 µg/mL

Request: Continue with Cc1ccc(N2COc3ccc(Cl)cc3C2)cc1
Response: 25 µg/mL

Request: Continue with CCCCN1COc2ccc3ccccc3c2C1
Response: > 50 µg/mL

Request: Continue with Clc1ccc2c(c1)CN(c1ccccc1Cl)CO2
Response: 25 µg/mL

Request: Continue with CCCCN1COc2ccc(Cl)cc2C1
Response: > 50 µg/mL

Request: Continue with CCCCN1COc2ccccc2C1
Response: > 50 µg/mL

====

# System: Trichophyton mentagrophytes
# Assay comment: Antimicrobial activity against Trichophyton mentagrophytes after 72 to 96 hrs
Lab note - cut at 20 µg/mL for MIC: Yes if strictly below, No if not.

>>> classification("c1ccc(N2COc3ccc4ccccc4c3C2)cc1")
"No"
>>> classification("Cc1ccc2c(c1)CN(c1ccccc1Cl)CO2")
"Yes"
>>> classification("Clc1cc(Cl)c(N2COc3ccc4ccccc4c3C2)c(Cl)c1")
"No"
>>> classification("OC(Cn1cncn1)(Cn1cncn1)c1ccc(F)cc1F [FLUCONAZOLE]")
"Yes"
>>> classification("Brc1ccc(N2COc3ccc4ccccc4c3C2)cc1")
"No"

Request: Please state whether MIC is below 20 µg/mL for Clc1cc(Cl)c2c(c1)CN(CCN1COc3c(Cl)cc(Cl)cc3C1)CO2
Response: No

Request: Continue with Clc1ccc(N2COc3ccc4ccccc4c3C2)cc1
Response: No

Request: Continue with Clc1ccc2c(c1)CN(c1ccccc1Cl)CO2
Response: Yes

====

# Tested on: Sporothrix schenckii
# Assay comment: Antimicrobial activity against Sporothrix schenckii after 24 hrs
# Type: functional
The entries below come with measured MIC values attached.
Kindly answer with a numeric value in µg/mL, unit omitted.

Solved cases below.
>>> endpoint_value("Cc1ccc2c(c1)CN(c1ccccc1)CO2")
12.5
>>> endpoint_value("CCCCN1COc2ccc3ccccc3c2C1")
50
>>> endpoint_value("Clc1ccccc1N1COc2c(Cl)ccc(Cl)c2C1")
12.5
>>> endpoint_value("CCCCN1COc2ccccc2C1")
50
>>> endpoint_value("Cc1ccc2c(c1)CN(c1ccccc1Cl)CO2")
12.5

Request: Can you share its MIC? I mean this compound: c1ccc2c(c1)CN(CCN1COc3ccccc3C1)CO2
Response: 25

Request: Continue with Cc1ccc(N2COc3ccc(C)cc3C2)cc1
Response: 12.5

Request: Continue with Cc1cccc2c1OCN(c1ccccc1)C2
Response: 25

Request: Continue with c1ccc(N2COc3ccccc3C2)cc1
Response: 25

Request: Continue with CCCCN1COc2ccc(Cl)cc2C1
Response: 25

====

# System: Trichophyton mentagrophytes
# Assay comment: Antimicrobial activity against Trichophyton mentagrophytes after 72 to 96 hrs
The entries below come with measured MIC values attached.
Kindly answer with a numeric value in µg/mL, unit omitted.

Solved cases below.
>>> endpoint_value("c1ccc(N2COc3ccccc3C2)cc1")
25
>>> endpoint_value("c1ccc2c(c1)CN(CCN1COc3ccccc3C1)CO2")
25
>>> endpoint_value("Cc1ccc(N2COc3ccc(C)cc3C2)cc1")
12.5

Request: Can you share its MIC? I mean this compound: c1ccc2c(c1)CN(C1CCCCC1)CO2
Response: 50

Request: Continue with Clc1ccc(N2COc3ccc4ccccc4c3C2)c(Cl)c1
Response: 50

====

The entries below come with measured MIC values attached.
# Test system: Sporothrix schenckii
# Assay comment: Antimicrobial activity against Sporothrix schenckii after 24 hrs
# Assay type: functional

Solved cases below.
>>> endpoint_value("Clc1ccc(Cl)c(N2COc3ccc4ccccc4c3C2)c1")
"> 50 µg/mL"
>>> endpoint_value("c1ccc(N2COc3c(ccc4ccccc34)C2)cc1")
"> 50 µg/mL"

Request: What value of MIC on Sporothrix schenckii does Clc1cc(Cl)c(N2COc3ccc4ccccc4c3C2)c(Cl)c1 have?
Response: > 50 µg/mL

====

# Test system: Trichophyton mentagrophytes
# Assay comment: Antimicrobial activity against Trichophyton mentagrophytes after 72 to 96 hrs
Assay readout: MIC (µg/mL)
Kindly answer with a numeric value in µg/mL, unit omitted.

Solved cases below.
>>> endpoint_value("CCCCN1COc2ccc3ccccc3c2C1")
25
>>> endpoint_value("Cc1ccc2c(c1)CN(c1ccccc1)CO2")
25
>>> endpoint_value("Fc1ccc(N2COc3ccc4ccccc4c3C2)cc1")
25

Request: Can you share its MIC? I mean this compound: c1ccc(CN2COc3ccc4ccccc4c3C2)cc1
Response: 50

Request: Continue with c1ccc2c3c(ccc2c1)OCN(C1CCCCC1)C3
Response: 25
